Every entry's value here was drawn from patent US20240358834A1.

Molecular target: T1, human CD19 protein with a biotinylated AviTag (Acrobiosystems) (human, UniProt P15391 20-291, biotinylated AviTag)
T1 construct: Captured on streptavidin-coated microplate wells; also called biotinylated-AviTag-CD19; hCD19; not shown: AviTag
T1 sequence (looked up): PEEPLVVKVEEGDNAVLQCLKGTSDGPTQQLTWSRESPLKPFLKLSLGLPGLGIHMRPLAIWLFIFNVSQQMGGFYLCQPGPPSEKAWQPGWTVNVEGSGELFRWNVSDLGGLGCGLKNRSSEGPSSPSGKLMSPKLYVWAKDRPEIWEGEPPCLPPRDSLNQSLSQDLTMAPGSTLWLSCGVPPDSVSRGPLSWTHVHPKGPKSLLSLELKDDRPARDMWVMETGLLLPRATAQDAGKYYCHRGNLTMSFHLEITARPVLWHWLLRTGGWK
Assay: phage ELISA, biotinylated AviTag CD19 on streptavidin wells; signal ratio to FMC63 standard
Let's look at some binders and their measured ELISA hCD19 (ratio FMC63).

binder="scFv 39 (scFv, Canine scFv (VL-linker-VH); also called P3-29) scFv: QSVLTQPPSVSGSPGQRVTISCSGTTKNIGIVGASWYQQLPGKAPKLLVHSDGFRPSGVPDRFSASNSGDSDILTITGLQAEDEADYYCQSFDTTLDAHVFGSGTQLTVLGGGSSRSSSSGGGGSGGGGEVPLVESGGDLVKPGGSLRLSCVASGFTFSSYGMSWVRQSPGKGLQWVAGITYDGSNTYYTDTVRGRFTISRDNARNTVYLQMNSLRAEDTAVYYCVASPLYGTYGFDYWGHGTSVFVSSASTTAPSVTSGQAGQHHHHHHGAYPYDVPDYAS" testresult="0.19 ratio to FMC63"
binder="scFv 43 (scFv, Canine scFv (VL-linker-VH); also called P3-02; P3-19) scFv: DIVMTQNPLSLAVTPGELATISCRASQSLLHSDGKSYLNWYLQKPGQTPRPLIYEASRRFSGVSDRFNGSGSGTDFTLKISRVEAEDVGVYYCQQGLHFPPTFGAGTKVELKGGSSRSSSSGGGGSGGGGEVQLVESGGDLVKPGGSLRLSCAASGFTFTDYDMSWVRQAPGKGLQWVAAISYDGSSTYYTDAVKGRFTISRDNARNTLYLQMSSLRAEDTAMYYCVVSNMNLWGHGTSVFVSSASTTAPSVTSGQAGQHHHHHHGAYPYDVPDYAS" testresult="0.57 ratio to FMC63"
binder="scFv 3 (scFv, Canine scFv (VL-linker-VH); also called scFv_03; P3-05) scFv: QSVLNQPPSVSGALGQTVTISCSGSHTNIGSGFDVQWYQQLPGKSPQTLVYANINRPSGVPARFSGSKSGSTATLTITGVQAEDEADYYCQSYDDNFDGHVFGSGTQLTVLGGGSSRSSSSGGGGSGGGGEVQLVQSGGDLVKPGGSLRLSCVASGFTFSNYTMSWVRQAPGQGLQWVAYINYDGSITYYAEAVKGRFTVSRDNAKNTLYLQMNSLRAEDTAVYFCVKETFMIPTEWGQGTLITVSSASTTAPSVTSGQAGQHHHHHHGAYPYDVPDYAS" testresult="0.32 ratio to FMC63"
binder="scFv 2 (scFv, Canine scFv (VL-linker-VH); also called scFv_02; P3-21) scFv: SYVLTQSPSLSGSLGQKVTISCTGSRSNLGGNYVGWYQQVPGMAPRNVIYANDFRPSRIPARFSASKSGTSATLTISGLQAEDEADYFCSSWDDDLGSHVFGSGTQLTILGGGSSRSSSSGGGGSGGGGEEQLVEFGGDLVKPGGSLRLSCVASGFSFSSYDMSWVRQAPGKGLQWVASTNFDGSRTYYTDAVEGRFTISRDNARNTVYLQMNSLRAEDTAVYYCARGMGSWGASTFGYWGQGTLVTVSSASTTAPSVTSGQAGQHHHHHHGAYPYDVPDYAS" testresult="0.49 ratio to FMC63"

QUERY: Reported ELISA hCD19 (ratio FMC63), binder scFv 30 (scFv, Canine scFv (VL-linker-VH); also called P4-02) scFv: QSVLTQPASVSVSLGQTATISCSGESLSKYYTQWFQQKAGQAPVLVIYKDTERPSGIPDRFSGSSSGNTHTLTISGAQAEDEADYYCQSYDDNVDGYVFGSGTQLTVLGGGSSRSSSSGGGGSGGGGEVQLVESGGDLVKPGGSLRLSCVGSGFTFSSYWMSWVRQAPGKGLQWIADISDSGSSTDYADAVKGRFTISRDNAKNTLYLQMNSLRAEDTAMYYCARGLGMDYWGHGTSLFVSSASTTAPSVTSGQAGQHHHHHHGAYPYDVPDYAS : ____
RESULT: 0.22 ratio to FMC63
